System: HCT-116 cells
assay.protocol: Inhibition of cell growth (MTT tetrazolium salt assay)
Type: cell-based
experimental.conditions: Homo sapiens, read-out: HCT116 IC90
quantity.kind: IC90

{"compound": "NC(=O)C[S+]([O-])c1cccc(Nc2nc(N)c(C(=O)c3c(Cl)cccc3Cl)s2)c1 (stereo not drawn)", "quantity.kind": "IC90", "measured.result": "> 25 µM"}
{"compound": "CNCCNS(=O)(=O)c1ccc(Nc2nc(N)c(C(=O)c3c(F)cccc3F)s2)cc1", "quantity.kind": "IC90", "measured.result": "> 5 µM"}
{"compound": "Nc1nc(Nc2ccc(S(=O)(=O)NCC3CCCNC3)cc2)sc1C(=O)c1c(F)cccc1F (stereo not drawn)", "quantity.kind": "IC90", "measured.result": "> 25 µM"}

----------
study.system: CDK4/cyclin D3 (Homo sapiens, UniProt P11802)
Construct: made in house; host or cells: insect cells (baculovirus co-infection)
Sequence (P11802 whole entry): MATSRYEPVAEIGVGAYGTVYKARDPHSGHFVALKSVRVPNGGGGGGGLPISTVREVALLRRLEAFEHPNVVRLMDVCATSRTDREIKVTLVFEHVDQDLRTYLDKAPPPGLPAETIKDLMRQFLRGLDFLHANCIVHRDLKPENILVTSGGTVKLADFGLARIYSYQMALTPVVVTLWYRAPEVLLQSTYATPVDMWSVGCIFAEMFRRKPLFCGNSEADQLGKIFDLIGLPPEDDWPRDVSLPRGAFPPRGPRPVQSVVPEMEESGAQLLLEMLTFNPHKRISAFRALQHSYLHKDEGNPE
Sequence (P30281 1-264 partner limits assumed): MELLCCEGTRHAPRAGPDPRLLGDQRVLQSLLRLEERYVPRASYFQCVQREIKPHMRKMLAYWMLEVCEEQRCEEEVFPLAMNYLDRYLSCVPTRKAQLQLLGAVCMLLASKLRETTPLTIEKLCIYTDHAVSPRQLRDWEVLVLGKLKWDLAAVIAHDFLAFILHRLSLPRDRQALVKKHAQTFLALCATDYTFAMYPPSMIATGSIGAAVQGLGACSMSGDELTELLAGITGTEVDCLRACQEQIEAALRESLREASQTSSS
assay.protocol: Inhibition of CDK4/Cyclin D retinoblastoma kinase activity
Format: biochemical
experimental.conditions: test compound at 0.1 μM; read-out: % Inhib CDK4/D @ 0.1 μM
Listing: inhibition at 0.1 µM of selected compounds

{"compound": "CC(C)CC[S+]([O-])c1cccc(Nc2nc(N)c(C(=O)c3c(Cl)cccc3Cl)s2)c1 (stereo not drawn)", "output.unit": "%", "inhibition at 0.1 µM": 28}
{"compound": "CCN(CC)C(=O)C[S+]([O-])c1ccc(Nc2nc(N)c(C(=O)c3c(Cl)cccc3Cl)s2)cc1 (stereo not drawn)", "output.unit": "%", "inhibition at 0.1 µM": 21}
{"compound": "Nc1nc(Nc2cccc(SCCO)c2)sc1C(=O)c1c(Cl)cccc1Cl", "output.unit": "%", "inhibition at 0.1 µM": 41}
{"compound": "CCN(CC)C(=O)CSc1ccc(Nc2nc(N)c(C(=O)c3c(Cl)cccc3Cl)s2)cc1", "output.unit": "%", "inhibition at 0.1 µM": -19}
{"compound": "CC(C)=CCS(=O)(=O)c1ccc(Nc2nc(N)c(C(=O)c3c(Cl)cccc3Cl)s2)cc1", "output.unit": "%", "inhibition at 0.1 µM": 9}
{"compound": "Nc1nc(Nc2ccc([S+]([O-])CC3CO3)cc2)sc1C(=O)c1c(Cl)cccc1Cl (stereo not drawn)", "output.unit": "%", "inhibition at 0.1 µM": 26}
{"compound": "CN1CCCC1CCS(=O)(=O)c1ccc(Nc2nc(N)c(C(=O)c3c(Cl)cccc3Cl)s2)cc1 (stereo not drawn)", "output.unit": "%", "inhibition at 0.1 µM": 24}
{"compound": "COc1cccc(CSc2cccc(Nc3nc(N)c(C(=O)c4c(Cl)cccc4Cl)s3)c2)c1", "output.unit": "%", "inhibition at 0.1 µM": -9}
{"compound": "COCCSc1cccc(Nc2nc(N)c(C(=O)c3c(Cl)cccc3Cl)s2)c1", "output.unit": "%", "inhibition at 0.1 µM": 34}
{"compound": "Nc1nc(Nc2cccc(SCc3ncon3)c2)sc1C(=O)c1c(Cl)cccc1Cl", "output.unit": "%", "inhibition at 0.1 µM": 36}
{"compound": "CN(C)CCCSc1ccc(Nc2nc(N)c(C(=O)c3c(Cl)cccc3Cl)s2)cc1", "output.unit": "%", "inhibition at 0.1 µM": 6.6}
{"compound": "Cc1noc(C)c1CSc1ccc(Nc2nc(N)c(C(=O)c3c(Cl)cccc3Cl)s2)cc1", "output.unit": "%", "inhibition at 0.1 µM": 19}
{"compound": "Nc1nc(Nc2cccc([S+]([O-])CC3CCCO3)c2)sc1C(=O)c1c(Cl)cccc1Cl (stereo not drawn)", "output.unit": "%", "inhibition at 0.1 µM": 34}
{"compound": "CN(C)CCCSc1cccc(Nc2nc(N)c(C(=O)c3c(Cl)cccc3Cl)s2)c1", "output.unit": "%", "inhibition at 0.1 µM": 10}
{"compound": "C=CCCSc1ccc(Nc2nc(N)c(C(=O)c3c(Cl)cccc3Cl)s2)cc1", "output.unit": "%", "inhibition at 0.1 µM": 20}
{"compound": "CCN(CC)C(=O)CSc1cccc(Nc2nc(N)c(C(=O)c3c(Cl)cccc3Cl)s2)c1", "output.unit": "%", "inhibition at 0.1 µM": 33}
{"compound": "CC(C)OC(=O)C[S+]([O-])c1cccc(Nc2nc(N)c(C(=O)c3c(Cl)cccc3Cl)s2)c1 (stereo not drawn)", "output.unit": "%", "inhibition at 0.1 µM": 24}
{"compound": "Nc1nc(Nc2cccc([S+]([O-])CC3CO3)c2)sc1C(=O)c1c(Cl)cccc1Cl (stereo not drawn)", "output.unit": "%", "inhibition at 0.1 µM": 64}
{"compound": "CC(C)CCOC(=O)C[S+]([O-])c1cccc(Nc2nc(N)c(C(=O)c3c(Cl)cccc3Cl)s2)c1 (stereo not drawn)", "output.unit": "%", "inhibition at 0.1 µM": 9.2}
{"compound": "CC(C)=CCSc1cccc(Nc2nc(N)c(C(=O)c3c(Cl)cccc3Cl)s2)c1", "output.unit": "%", "inhibition at 0.1 µM": 27}
{"compound": "CC(=O)OCCS(=O)(=O)c1ccc(Nc2nc(N)c(C(=O)c3c(Cl)cccc3Cl)s2)cc1", "output.unit": "%", "inhibition at 0.1 µM": 37}

----------
Listing: log10(Ki) of selected compounds
study.system: CDK4/cyclin D3 (Homo sapiens, UniProt P11802)
assay.protocol: Inhibition of CDK4/Cyclin D retinoblastoma kinase activity
experimental.conditions: apparent Ki, Rb fragment substrate
Counter-ions that a name gives are not always drawn.
quantity.kind: log10(Ki) (log10 of the value in nM)

{"compound": "Nc1nc(Nc2ccc(S(=O)(=O)NCCOCCO)cc2)sc1C(=O)c1c(F)cccc1F", "log10(Ki)": 1.41}
{"compound": "COCCNS(=O)(=O)c1ccc(Nc2nc(N)c(C(=O)c3c(F)cccc3F)s2)cc1", "log10(Ki)": 1.72}
{"compound": "CNCCNS(=O)(=O)c1ccc(Nc2nc(N)c(C(=O)c3c(F)cccc3F)s2)cc1", "log10(Ki)": 0.76}
{"compound": "Cc1ccc(CNS(=O)(=O)c2ccc(Nc3nc(N)c(C(=O)c4c(F)cccc4F)s3)cc2)o1", "log10(Ki)": 1.45}
{"compound": "NC(=O)CSc1cccc(Nc2nc(N)c(C(=O)c3c(Cl)cccc3Cl)s2)c1", "log10(Ki)": 1.52}
{"compound": "CCSCCNS(=O)(=O)c1ccc(Nc2nc(N)c(C(=O)c3c(F)cccc3F)s2)cc1", "log10(Ki)": 1.38}
{"compound": "CN(C)CCNS(=O)(=O)c1ccc(Nc2nc(N)c(C(=O)c3c(F)cccc3F)s2)cc1", "log10(Ki)": 0.88}
{"compound": "Cc1csc(NS(=O)(=O)c2ccc(Nc3nc(N)c(C(=O)c4c(F)cccc4F)s3)cc2)n1", "log10(Ki)": 1.62}
{"compound": "CN(C)CCCNS(=O)(=O)c1ccc(Nc2nc(N)c(C(=O)c3c(F)cccc3F)s2)cc1", "log10(Ki)": 0.83}
{"compound": "Cn1cncc1CNS(=O)(=O)c1ccc(Nc2nc(N)c(C(=O)c3c(F)cccc3F)s2)cc1 [A(38), Trifluoroacetic Acid Salt]", "log10(Ki)": 0.59}

----------
study.system: CDK4/cyclin D3 (Homo sapiens, UniProt P11802)
Construct: made in house; host or cells: insect cells (baculovirus co-infection)
assay.protocol: Inhibition of CDK4/Cyclin D retinoblastoma kinase activity
Assay type: biochemical
experimental.conditions: test compound at 0.1 μM; read-out: % Inhib CDK4/D @ 0.1 μM

{"molecule": "CN(C)CC[S+]([O-])c1ccc(Nc2nc(N)c(C(=O)c3c(Cl)cccc3Cl)s2)cc1 (stereo not drawn)", "inhibition at 0.1 µM, %": 27}
{"molecule": "CC(C)CCSc1cccc(Nc2nc(N)c(C(=O)c3c(Cl)cccc3Cl)s2)c1", "inhibition at 0.1 µM, %": 14}
{"molecule": "COC(=O)C[S+]([O-])c1ccc(Nc2nc(N)c(C(=O)c3c(Cl)cccc3Cl)s2)cc1 (stereo not drawn)", "inhibition at 0.1 µM, %": 45}
{"molecule": "C=CCCS(=O)(=O)c1ccc(Nc2nc(N)c(C(=O)c3c(Cl)cccc3Cl)s2)cc1", "inhibition at 0.1 µM, %": 14}
{"molecule": "Nc1nc(Nc2ccc([S+]([O-])CC(O)CO)cc2)sc1C(=O)c1c(Cl)cccc1Cl (stereo not drawn)", "inhibition at 0.1 µM, %": 46}
{"molecule": "Nc1nc(Nc2ccc(SCCN3CCCCC3)cc2)sc1C(=O)c1c(Cl)cccc1Cl", "inhibition at 0.1 µM, %": 28}
{"molecule": "Cc1noc(C)c1C[S+]([O-])c1ccc(Nc2nc(N)c(C(=O)c3c(Cl)cccc3Cl)s2)cc1 (stereo not drawn)", "inhibition at 0.1 µM, %": -4}
{"molecule": "CC(C)CCSc1ccc(Nc2nc(N)c(C(=O)c3c(Cl)cccc3Cl)s2)cc1", "inhibition at 0.1 µM, %": 4.7}
{"molecule": "CC(C)CCOC(=O)CSc1cccc(Nc2nc(N)c(C(=O)c3c(Cl)cccc3Cl)s2)c1", "inhibition at 0.1 µM, %": 6.9}
{"molecule": "COCC[S+]([O-])c1ccc(Nc2nc(N)c(C(=O)c3c(Cl)cccc3Cl)s2)cc1 (stereo not drawn)", "inhibition at 0.1 µM, %": 51}
{"molecule": "CN1CCCC1CC[S+]([O-])c1cccc(Nc2nc(N)c(C(=O)c3c(Cl)cccc3Cl)s2)c1 (stereo not drawn)", "inhibition at 0.1 µM, %": 53}
{"molecule": "CC(C)OC(=O)CC[S+]([O-])c1ccc(Nc2nc(N)c(C(=O)c3c(Cl)cccc3Cl)s2)cc1 (stereo not drawn)", "inhibition at 0.1 µM, %": 22}
{"molecule": "Nc1nc(Nc2ccc([S+]([O-])CC(=O)Nc3ccccc3)cc2)sc1C(=O)c1c(Cl)cccc1Cl (stereo not drawn)", "inhibition at 0.1 µM, %": 55}
{"molecule": "Nc1nc(Nc2cccc(SCC(=O)Nc3ccccc3)c2)sc1C(=O)c1c(Cl)cccc1Cl", "inhibition at 0.1 µM, %": 24}
{"molecule": "COC(=O)/C=C/CSc1ccc(Nc2nc(N)c(C(=O)c3c(Cl)cccc3Cl)s2)cc1", "inhibition at 0.1 µM, %": 11}
{"molecule": "Nc1nc(Nc2cccc([S+]([O-])CC(=O)Nc3ccccc3)c2)sc1C(=O)c1c(Cl)cccc1Cl (stereo not drawn)", "inhibition at 0.1 µM, %": 42}
{"molecule": "Nc1nc(Nc2ccc(SCCCO)cc2)sc1C(=O)c1c(Cl)cccc1Cl", "inhibition at 0.1 µM, %": 40}
{"molecule": "Nc1nc(Nc2cccc(SCC3CC3)c2)sc1C(=O)c1c(Cl)cccc1Cl", "inhibition at 0.1 µM, %": 17}
{"molecule": "NC(=O)CCS(=O)(=O)c1ccc(Nc2nc(N)c(C(=O)c3c(Cl)cccc3Cl)s2)cc1", "inhibition at 0.1 µM, %": 35}
{"molecule": "CN1CCCC1CC[S+]([O-])c1ccc(Nc2nc(N)c(C(=O)c3c(Cl)cccc3Cl)s2)cc1 (stereo not drawn)", "inhibition at 0.1 µM, %": 34}
{"molecule": "CC1(CSc2ccc(Nc3nc(N)c(C(=O)c4c(Cl)cccc4Cl)s3)cc2)CO1 (stereo not drawn)", "inhibition at 0.1 µM, %": 6.8}
{"molecule": "COC(=O)/C=C/C[S+]([O-])c1cccc(Nc2nc(N)c(C(=O)c3c(Cl)cccc3Cl)s2)c1 (stereo not drawn)", "inhibition at 0.1 µM, %": 34}
{"molecule": "CN1CCCC(CSc2cccc(Nc3nc(N)c(C(=O)c4c(Cl)cccc4Cl)s3)c2)C1 (stereo not drawn)", "inhibition at 0.1 µM, %": 14}
{"molecule": "Nc1nc(Nc2ccc(SCCN3CCOCC3)cc2)sc1C(=O)c1c(Cl)cccc1Cl", "inhibition at 0.1 µM, %": 18}
{"molecule": "CCOC(=O)CC[S+]([O-])c1cccc(Nc2nc(N)c(C(=O)c3c(Cl)cccc3Cl)s2)c1 (stereo not drawn)", "inhibition at 0.1 µM, %": 36}
{"molecule": "Nc1nc(Nc2ccc(SCC(O)CO)cc2)sc1C(=O)c1c(Cl)cccc1Cl (stereo not drawn)", "inhibition at 0.1 µM, %": 52}
{"molecule": "Nc1nc(Nc2cccc([S+]([O-])Cc3ncon3)c2)sc1C(=O)c1c(Cl)cccc1Cl (stereo not drawn)", "inhibition at 0.1 µM, %": 54}
